Measured inhibition at 0.3 µM, listed per entry.
Test system: adult rat ventricular myocytes
Test: Cardiomyocyte contractility assay (fractional shortening, IonOptix edge detection)
Assay type: cell-based
Conditions: Ventricular myocyte, 0.3 μM compound, 1 Hz pacing
Readout: inhibition at 0.3 µM

[[record]]
smiles_code = "CCn1c(=O)[nH]c2c(c1=O)CC[C@H](c1ccccc1F)N2"
readout = "inhibition at 0.3 µM"
observed = "< 33%"

[[record]]
smiles_code = "CC(C)n1c(=O)[nH]c2c(c1=O)CC(F)(F)[C@H](c1ccccc1)N2"
readout = "inhibition at 0.3 µM"
observed = "33 to 66%"

[[record]]
smiles_code = "O=c1[nH]c2c(c(=O)n1C1CCC1)CC[C@H](C1CCC(F)(F)CC1)N2"
readout = "inhibition at 0.3 µM"
observed = "33 to 66%"

[[record]]
smiles_code = "CC(C)n1c(=O)[nH]c2c(c1=O)CC[C@H](c1ccc(F)cc1F)N2"
readout = "inhibition at 0.3 µM"
observed = "33 to 66%"

[[record]]
smiles_code = "CC(C)n1c(=O)[nH]c2c(c1=O)CC[C@H](c1ccc(F)c(F)c1)N2"
readout = "inhibition at 0.3 µM"
observed = "33 to 66%"

[[record]]
smiles_code = "CC[C@@H](C)n1c(=O)[nH]c2c(c1=O)CC[C@H](c1ccc(F)c(F)c1)N2"
readout = "inhibition at 0.3 µM"
observed = "33 to 66%"


The origin of these recorded values is patent US9663516B2.
